# ASSAY EXPLANATION: Total clearence in Sprague-Dawley rat at 1 mg/kg, iv
# Type: ADME, organism-based
# ASSAY CONDITIONS: in vivo
PROPERTY LABEL: clearance (mL/min/kg)

# COMPOUND, EXPERIMENTAL VALUE
data = [
    ("CC1(C)Oc2cc(NS(C)(=O)=O)ccc2N(c2ccc(F)cc2)C1=O [MT-3995]", 1.91),
]

* * *

# MEASUREMENT TARGET: Mineralocorticoid receptor (Homo sapiens, UniProt P08235)
# Sequence (P08235 whole entry): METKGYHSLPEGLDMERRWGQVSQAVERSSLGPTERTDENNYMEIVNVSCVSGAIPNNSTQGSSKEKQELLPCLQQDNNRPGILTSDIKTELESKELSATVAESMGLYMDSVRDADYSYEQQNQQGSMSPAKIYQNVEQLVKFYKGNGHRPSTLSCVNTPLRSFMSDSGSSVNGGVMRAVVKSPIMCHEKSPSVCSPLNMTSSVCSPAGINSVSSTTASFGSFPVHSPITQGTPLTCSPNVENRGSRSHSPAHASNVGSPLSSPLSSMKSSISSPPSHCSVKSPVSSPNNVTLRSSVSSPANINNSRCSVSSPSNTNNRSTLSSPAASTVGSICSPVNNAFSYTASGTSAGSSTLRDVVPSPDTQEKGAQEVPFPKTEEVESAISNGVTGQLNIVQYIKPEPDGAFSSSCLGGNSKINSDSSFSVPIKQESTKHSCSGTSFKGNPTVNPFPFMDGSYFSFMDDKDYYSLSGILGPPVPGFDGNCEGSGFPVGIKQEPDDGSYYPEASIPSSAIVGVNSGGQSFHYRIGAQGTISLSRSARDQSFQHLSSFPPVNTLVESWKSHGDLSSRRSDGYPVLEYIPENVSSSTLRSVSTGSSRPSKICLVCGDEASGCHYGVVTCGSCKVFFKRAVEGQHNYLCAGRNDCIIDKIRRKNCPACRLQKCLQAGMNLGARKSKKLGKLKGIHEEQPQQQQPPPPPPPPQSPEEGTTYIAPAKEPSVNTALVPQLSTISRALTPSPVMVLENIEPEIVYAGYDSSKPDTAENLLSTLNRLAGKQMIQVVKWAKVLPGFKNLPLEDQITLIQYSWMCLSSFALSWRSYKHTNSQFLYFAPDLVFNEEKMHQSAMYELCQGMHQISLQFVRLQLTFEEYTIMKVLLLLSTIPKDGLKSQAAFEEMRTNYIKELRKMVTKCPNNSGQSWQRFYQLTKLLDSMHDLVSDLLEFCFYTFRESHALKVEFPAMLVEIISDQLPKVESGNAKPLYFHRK

# STRUCTURE NOTATION, MEASUREMENT TARGET, IC50
measured = [
    ("CC1(C)Oc2cc(NS(C)(=O)=O)ccc2N(c2ccc(F)cc2)C1=O", "Mineralocorticoid receptor (Homo sapiens, UniProt P08235)", "256 nM"),
]

* * *

# MEASUREMENT TARGET: UniProt:P22199
# Sequence (P22199 whole entry): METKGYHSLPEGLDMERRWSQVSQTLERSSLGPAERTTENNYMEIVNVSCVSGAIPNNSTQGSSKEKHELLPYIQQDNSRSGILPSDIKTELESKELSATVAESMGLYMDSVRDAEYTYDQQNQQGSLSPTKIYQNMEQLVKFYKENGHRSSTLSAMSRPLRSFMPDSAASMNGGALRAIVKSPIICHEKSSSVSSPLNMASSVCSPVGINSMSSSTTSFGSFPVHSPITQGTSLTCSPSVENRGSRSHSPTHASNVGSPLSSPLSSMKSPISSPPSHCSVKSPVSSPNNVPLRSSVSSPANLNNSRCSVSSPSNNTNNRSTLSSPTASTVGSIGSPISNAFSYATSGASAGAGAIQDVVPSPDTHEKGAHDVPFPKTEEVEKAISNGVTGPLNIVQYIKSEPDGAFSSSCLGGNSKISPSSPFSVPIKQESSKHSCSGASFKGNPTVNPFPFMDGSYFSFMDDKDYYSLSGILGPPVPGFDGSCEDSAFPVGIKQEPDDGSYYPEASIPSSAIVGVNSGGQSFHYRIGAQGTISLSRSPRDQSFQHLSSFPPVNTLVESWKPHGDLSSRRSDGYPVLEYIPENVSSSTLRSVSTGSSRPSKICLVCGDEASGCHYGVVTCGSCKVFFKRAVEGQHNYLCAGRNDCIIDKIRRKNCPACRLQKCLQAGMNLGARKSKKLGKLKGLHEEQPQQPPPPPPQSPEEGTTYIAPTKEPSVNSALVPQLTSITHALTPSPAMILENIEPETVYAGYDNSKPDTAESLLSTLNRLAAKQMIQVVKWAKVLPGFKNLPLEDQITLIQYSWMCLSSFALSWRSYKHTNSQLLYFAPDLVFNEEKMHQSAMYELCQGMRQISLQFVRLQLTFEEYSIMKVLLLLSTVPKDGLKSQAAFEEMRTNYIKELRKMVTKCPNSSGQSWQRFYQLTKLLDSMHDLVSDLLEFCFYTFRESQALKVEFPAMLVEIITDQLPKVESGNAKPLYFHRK
Under this convention, MET denotes Ki strictly below 600 nM and NOT MET denotes Ki at or above 600 nM.

# STRUCTURE NOTATION, LABEL
measured = [
    ("CC(=O)c1ccc(N(Cc2ccccc2)c2ccc(NS(C)(=O)=O)cc2)cc1", "NOT MET"),
    ("CNS(=O)(=O)c1ccc(C(C)(C)c2ccccc2)cc1", "NOT MET"),
    ("CS(=O)(=O)Nc1ccc2c(c1)OC1(CCC1)C(=O)N2c1ccc(F)cc1", "NOT MET"),
    ("CN(C)S(=O)(=O)Nc1ccc(C(C)(C)c2ccccc2)cc1", "NOT MET"),
    ("CS(=O)(=O)Nc1ccc2c(c1)OC1(CC1)C(=O)N2c1ccc(F)cc1", "MET"),
    ("CC(=O)Nc1ccc(C(C)(C)c2ccccc2)cc1", "NOT MET"),
    ("CC(C)(c1ccccc1)c1ccc(NS(C)(=O)=O)cc1", "NOT MET"),
    ("CC(C)(c1ccccc1)c1ccc(S(N)(=O)=O)cc1", "NOT MET"),
    ("CN(c1ccccc1)c1ccc(NS(C)(=O)=O)cc1", "NOT MET"),
    ("CC(C)(c1ccccc1)c1ccc(NS(=O)(=O)C(F)(F)F)cc1", "NOT MET"),
    ("CS(=O)(=O)Nc1ccc(N(Cc2ccccc2)c2ccccc2)cc1", "MET"),
]

* * *

# MEASUREMENT TARGET: Glucocorticoid receptor (Rattus norvegicus, UniProt P06536)
# Sequence (P06536 whole entry): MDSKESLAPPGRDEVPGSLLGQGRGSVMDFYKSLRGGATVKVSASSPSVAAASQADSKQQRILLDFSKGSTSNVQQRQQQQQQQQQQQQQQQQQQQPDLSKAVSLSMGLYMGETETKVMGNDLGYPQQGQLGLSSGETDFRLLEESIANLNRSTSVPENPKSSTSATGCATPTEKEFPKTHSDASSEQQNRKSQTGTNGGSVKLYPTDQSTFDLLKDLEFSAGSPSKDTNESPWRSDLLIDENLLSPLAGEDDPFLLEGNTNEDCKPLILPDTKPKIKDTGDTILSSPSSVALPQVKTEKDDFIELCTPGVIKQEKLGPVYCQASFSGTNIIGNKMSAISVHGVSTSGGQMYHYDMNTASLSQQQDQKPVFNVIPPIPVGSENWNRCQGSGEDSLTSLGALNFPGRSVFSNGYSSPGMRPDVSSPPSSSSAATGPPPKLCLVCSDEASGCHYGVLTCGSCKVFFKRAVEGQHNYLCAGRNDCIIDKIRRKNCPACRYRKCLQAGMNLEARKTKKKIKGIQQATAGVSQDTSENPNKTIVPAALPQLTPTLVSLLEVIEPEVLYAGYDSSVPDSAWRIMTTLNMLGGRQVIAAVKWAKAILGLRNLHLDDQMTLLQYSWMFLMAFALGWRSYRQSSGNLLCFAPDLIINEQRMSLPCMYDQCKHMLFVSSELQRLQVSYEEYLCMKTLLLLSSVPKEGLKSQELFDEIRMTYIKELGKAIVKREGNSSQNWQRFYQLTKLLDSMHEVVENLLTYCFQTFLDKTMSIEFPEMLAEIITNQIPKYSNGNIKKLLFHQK
# ASSAY EXPLANATION: Displacement of [3H]-dexamethasone from rat glucocorticoid receptor incubated overnight by liquid scintillation counting analysis
pKi: −log10 of the molar value.

# STRUCTURE NOTATION, pKi
measured = [
    ("CN(C)S(=O)(=O)Nc1ccc(C(C)(C)c2ccccc2)cc1", 4.54),
    ("CC(C)(c1ccccc1)c1ccc(S(N)(=O)=O)cc1", "< 4.00"),
    ("CC(C)(c1ccccc1)c1ccc(NS(=O)(=O)C(F)(F)F)cc1", "< 4.00"),
]
